- test-target: T1, CAPRIN-1 protein expressed on the cell membrane surface of human cancer cell lines (human, UniProt Q14444 2-709)
- T1 construct: whole, on cells; also called human CAPRIN-1; Cytoplasmic- and proliferation-associated protein 1
- T1 sequence (looked up): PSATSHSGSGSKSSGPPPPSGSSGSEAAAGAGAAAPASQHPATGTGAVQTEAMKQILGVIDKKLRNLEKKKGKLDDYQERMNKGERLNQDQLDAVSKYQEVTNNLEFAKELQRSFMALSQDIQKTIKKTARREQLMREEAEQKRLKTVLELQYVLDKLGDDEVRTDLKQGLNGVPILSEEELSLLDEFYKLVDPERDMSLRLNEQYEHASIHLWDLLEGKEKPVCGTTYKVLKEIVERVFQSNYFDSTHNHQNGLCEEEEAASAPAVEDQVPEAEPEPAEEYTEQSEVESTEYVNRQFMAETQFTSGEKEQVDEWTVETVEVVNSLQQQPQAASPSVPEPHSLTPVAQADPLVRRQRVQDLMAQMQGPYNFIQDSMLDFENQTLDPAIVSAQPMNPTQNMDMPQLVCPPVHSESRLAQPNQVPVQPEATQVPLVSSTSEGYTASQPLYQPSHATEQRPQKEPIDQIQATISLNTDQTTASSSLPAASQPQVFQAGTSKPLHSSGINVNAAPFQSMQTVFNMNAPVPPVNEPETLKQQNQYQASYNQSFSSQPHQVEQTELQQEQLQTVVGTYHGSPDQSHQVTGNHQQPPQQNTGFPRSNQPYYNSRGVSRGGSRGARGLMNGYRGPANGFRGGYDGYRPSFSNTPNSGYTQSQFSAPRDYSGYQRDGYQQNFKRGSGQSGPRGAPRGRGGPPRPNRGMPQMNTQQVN
- experiment-description: flow cytometry on Capan-2, MIAPaCa-2, PANC-1 and BxPC-3 cells, vs isotype control
Measured rate of increase in mean fluorescence intensity accompanies every entry in the list below.

{"columns": ["binder", "result"],
 "data": [
  ["mouse monoclonal antibody #18 (antibody, V domains shown, Mouse hybridoma antibody; also called anti-CAPRIN-1 mouse monoclonal antibody #18) VH: LQESGAELARPGASVKLSCKASGYTFTSYWMQWVKQRPGQGLEWIGAIYPGDGDTRYTQKFKGKATLTADKSSSTAYMQLSSLASEDSAVYYCARGEYGNYFAYWGQGTTVTVSS VL: TSDASLGERVTITCKASQDINSYLSWFQQKPGKSPKTLIYRANRLVDGVPSRFSGSGSGQDYSLTISSLEYEDMGIYYCLQYDEFPLTFGGGTKLEIKQ", "≥ 20%"]
]}

Switching to the query record.
## Task Consider the binder mouse monoclonal antibody #12 (antibody, V domains shown, Mouse hybridoma antibody; also called anti-CAPRIN-1 mouse monoclonal antibody #12) VH: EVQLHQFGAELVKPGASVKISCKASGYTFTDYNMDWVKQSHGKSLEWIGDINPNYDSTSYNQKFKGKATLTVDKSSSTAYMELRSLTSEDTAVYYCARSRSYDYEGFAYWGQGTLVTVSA VL: DIQMTQSPASLSASVGETVTITCRASGNIHNYLAWYQQKQGKSPQLLVYNAKTLADGVPSRFSGSGSGTQYSLKINSLQPEDFGSYYCQHFWSTLTFGAGTKLELKR and give its measured rate of increase in mean fluorescence intensity.
## Result ≥ 20%
